assayExplanation: Systemic pharmacokinetics and total colon tissue distribution after single oral administration
Format: in vivo, mouse
conditionParameters: male, C57BL/6, mouse, total colon; mice, oral 5 mg/kg, 4 h, compound 1 measured; read-out: Mean total colon level
Where a name gives a salt, the structure may show the parent alone.
quantityKind: concentration at 4 h (ng/g)
Give the value, in units of ng/g, as a plain number.

Ask | Quick one: concentration at 4 h of COc1cc(Nc2cc(Oc3ccc(NC(=O)Nc4cc(C(C)(C)C)cc(NS(C)(=O)=O)c4OC)c4ccccc34)ccn2)ccc1C(=O)O [1 (sodium salt)] ?
Reply | 10400

----------
studySystem: c-Src (Homo sapiens (Human))
Sequence (P12931 whole entry, looked up): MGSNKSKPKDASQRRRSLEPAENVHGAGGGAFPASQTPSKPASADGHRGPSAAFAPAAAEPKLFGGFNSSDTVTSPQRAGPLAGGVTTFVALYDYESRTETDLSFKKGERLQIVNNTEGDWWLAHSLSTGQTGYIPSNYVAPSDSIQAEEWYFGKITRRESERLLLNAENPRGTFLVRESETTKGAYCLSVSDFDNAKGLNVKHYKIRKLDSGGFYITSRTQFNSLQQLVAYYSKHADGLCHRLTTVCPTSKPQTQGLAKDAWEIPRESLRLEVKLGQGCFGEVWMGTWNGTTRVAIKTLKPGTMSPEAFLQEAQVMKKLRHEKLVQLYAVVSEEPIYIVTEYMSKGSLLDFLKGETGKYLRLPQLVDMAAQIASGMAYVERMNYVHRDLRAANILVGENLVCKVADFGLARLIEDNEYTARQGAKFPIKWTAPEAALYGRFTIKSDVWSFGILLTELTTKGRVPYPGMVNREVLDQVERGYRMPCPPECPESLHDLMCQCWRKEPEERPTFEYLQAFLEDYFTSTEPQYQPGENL
quantityKind: IC50 (nM)
Give the value, in units of nM, as a plain number.

Ask | Quick one: IC50 of COc1cc(Nc2cc(Oc3ccc(NC(=O)Nc4cc(C(C)(C)C)cc(NS(C)(=O)=O)c4OC)c4ccccc34)ccn2)ccc1C(=O)O [Example 1] ?
Reply | 14
